- assay_explanation: yeast display, Sf9 membrane polyspecificity reagent, FACS + sequencing; frameworks hold sequencing errors
measure: polyreactivity (PSR sort gate)

Past entries and their recorded results:
| entry_sequence | reported_value |
| --- | --- |
| QVQLVESGGGLVQAGGSLRLSCAASGITFDNNAMGWYRQAPGKEREFVADIDGSGGSTYYADSVKGRFTISRDNAKNTVYLQMNSLKPEDTAVYYCNAGYVHSFDYWGQGTQVTVSS | low polyreactivity |
| QVQLVESGGGLVQAGGSLRLSCAASGFTFWRYAMGWYRQAPGKDRELVAAISWRGSSTYYADSVKGRFTISRDNAMNTVYLQMNSLKPEDTAVSYCARYQSTYDSTYNYWGQGTQVTVSS | high polyreactivity |
| QVQLVESGGGLVQAGGSLRLSCAASGRIFSYNAMGWYRQAPGQERELVASISGRGVITYYADSVKGRFTISRDNAKNTVYLQMNSLKPEDTAVYYCNARYIYTRPRPRNYWGQGTQVTVSS | high polyreactivity |
| QVQLVESGGGLVQAGGSLRLSCAASGRIFVSYAMGWYRQAPGKERELVAAITYSVDSTYYADSVKGRFTISRDNAKNTVYLQMNSLKPEDTAVSYCATDVDWAYGYQYEYWGQGTQVTVSS | low polyreactivity |

Proceeding to the next sequence to report its polyreactivity (PSR sort gate).
// lookup polyreactivity (PSR sort gate) for QVQLVESGGGLVQAGGSLRLSCAASGNTVKGYAMGWYRQAPGKERELVAAISWSGSSTYYADSVKGRFTISRDNAKNTVYLQMNSLKPEDTAVYYCNRKYLGRYASVYGYGYWGQGTQVTVSS
high polyreactivity

###

- assay_explanation: yeast display, Sf9 membrane polyspecificity reagent, FACS + sequencing; frameworks hold sequencing errors
measure: polyreactivity (PSR sort gate)

Use the examples below as a reference point.
| entry_sequence | polyreactivity (PSR sort gate) |
| --- | --- |
| QVQLVESGGGLVQAGGSLRLSCAASGSTFGTYAMGWYRQAPGKERELVAAISYRGGSTYYADSVKGRFTISRDNAKNTVYLQMNSLKPEDTAVYYCATRKYAATGYDYWGQGTQVTVSS | high polyreactivity |
| QVQLVESGGGLVQAGGSLRLSCAASGFTFVPYAMGWYRQAPGKERELVAAISGSGGSTYYADSVKGRFTISRDNAKNTVYLQMNSLKPEDTAVYYCNADRRWAYYWGQGTQVTVSS | high polyreactivity |
| QVQLVESVGDLVQEGGSLRLSCAASGRIFYWYAMGWYRQAPGKETELVAAITSGGSTYYADSVKGRFTISRDNAKNTVYLQMNSLKPEDTAVYYCAKPFSSNSCSHGYWGQGTQVTVSS | low polyreactivity |
| QVQLVESGGGLVQAGGSLRLSCAASGSIFTLYDMGWYRQAPGKERELVAAITSGGSTDYADSVKGRFTISRDNAKNTVYFQMNSLKPEDTAVYYCNAEAYPYWYRGASREYDYWGQGTQVTVSS | low polyreactivity |
| QVQLVESGGRLVQAGGSLRLSGAASVLTFNFNAMGWYRQAPGKERELVAANSYRAGSTYYADSVKGRFTISRDNAKNTVYLQMNSLKPEDTAVYYCAKPTYRFYWGDFDYWGQGTQVTVSS | low polyreactivity |
| QVQLLESGGGLVQARGSLRLSCAASGITFSRYAMGWYRQAPGKERELVAAITRRGGNTYYADSVKGSFTISRVYAKNTVYLQMNSLKPEDTAVYYCAAGYTYYRGDYWGQGTQVTVSS | high polyreactivity |
| QVQLVESGGGLVQAGGSLRLSCAASGFTFTRYTMGWYSQEPGKERELVARITRSGGSTYYADSVKGRFTISRDNAKNTVYLQMNSLKPEDTAVYYCAADTWSYTTRYYYWGQGTQVTVSS | high polyreactivity |
| QVQHVESGGGLVQAGGSLRLSCAASGRTFYSYAMGWYRQAPGKERELVAAISGRGGRTYYADSVKGRFTISRDNAKNTVYLQMNSLKPEDSAVYFCAKGGYAIRYYGFDYWGQGTQVTVSS | high polyreactivity |
| QVQHVESGGGLVQAGGSLRLSCAASRFIFVTYAMGCYIQAPGKERELVAAITNSGGTTYYADSVKGRFTISRDNAKNTVYLQMNSLKPEDTAVYYCNKPYGAETAHREFDYWGQGTQVTVSS | low polyreactivity |
| QVQLVESGGGLVQAGGSLRLSCAASGRIFVRYDMGWYRQAPGKERELVAAISSSDGSTYYADSVKGRFTISRDNAKNTVYLQMNSLKPEDTAVYYCNADVSLDDYDYWGQGTQVTVSS | low polyreactivity |

# context switch: different sequence, same polyreactivity (PSR sort gate)
polyreactivity (PSR sort gate) for QVQLVESGGGLVQAGGSLRLSCAASGRTFSTYAMGWYRQATGKERELVAAIRSGGSTYYADSVKGRFTISRDNAKNTVYLQMNSLKPEDTAVYYCNALPRPSIFRYDYWGQGTQVTVSS ?
high polyreactivity

###

- assay_explanation: yeast display, Sf9 membrane polyspecificity reagent, FACS + sequencing; frameworks hold sequencing errors
measure: polyreactivity (PSR sort gate)

Reference set, count: 4
| entry_sequence | polyreactivity (PSR sort gate) |
| --- | --- |
| QVQLVESGGGLVQAGGILSLSCAASGSTFPYNAMGWYRQAPGIERQLVAAISSGGSTYYADSVKGRFTNSRDNAKNTVYLMMNRLKPEDTAVYYCAASWGKYIRSWGYGYWGQGTLVTVSS | high polyreactivity |
| PVQLVESGGGLVQAGGSLRLSCAASGRILPSNAMGWYRQAPGKERELVAGITSGGSTDYADSVKGRFTISRDNAKNTVYLQMNSLNPVDTAVYYCAARYFHHYWGDLEVEFEYWGQGTQVTVSS | low polyreactivity |
| QVQLVESVGGLVQAGGSLRLSCAASGRTFRAYSMGSYRQAPGKETELVAAIRSGTSTNYADSVKGRFTISRDNAKNTVYLQMNSLKPEDTAVYYCAARWWYYIGGRDYWGHGTQVTVSS | high polyreactivity |
| QVQLVESGGGLVQAGGSLRLSCAASGSTFKWYAMGWYRQAPGKERELVAAITRGGSTSYADSVKGRFTISLDNAKNTVYLQMNSLKPEDTAVYYCAADYHYTKSMYYWGQGTQVTVSS | low polyreactivity |

Next up:
Look up polyreactivity (PSR sort gate) for this sequence: QVQLVESGGCLFQAGGSLRLSCAASGFNFPYYAMGWYRQAPGKERELVAAINRGGSTYYADSEKGRFTISRDNAKNTVYLQMNSLKPEDTAVFYCAAGYPSWYYGYPYDSWGQGTQVNVSS
low polyreactivity

###

- assay_explanation: yeast display, Sf9 membrane polyspecificity reagent, FACS + sequencing; frameworks hold sequencing errors
measure: polyreactivity (PSR sort gate)

As a guide, the following entries are already answered.
| entry_sequence | polyreactivity (PSR sort gate) |
| --- | --- |
| QVQLVESGGGLVQAGGSLRLSCAASGRTFVYYAMGWYRQAPGKERELVAAITSVGSTYYADSVKGRCTISRDNAKNTVYLQMNSLKPEDTAVYSCAKDTWAYPYYWPYDDYWGHGTQVTVSS | low polyreactivity |
| QVQLVESGGGLVQAGGSLRLSCAASGSTFTFNAMVWYRQAPGKERELVAAITTSAGSTYYADSVKGRFTISRDNAKNTVYLQMSSLKPEDTAVYYCAARYVPPWGRRYYYWGQGTQVTVSS | high polyreactivity |
| QVQLVESGGGLVQAGGSLRLSCAASGNTFEYYAMGWYRQAPGKERELVAAITSGGSTNYADSVKGRFTISRDNAKNTVYYQMNSLKPEDTAVYYCAADQWGYEYDYWGQGTQVTVSS | low polyreactivity |
| QVHLVESGVGLVQAGGSRRLSCAASGVIFTGYAMGRYRHAPGKDRELVAAISSSGTSTYYADSVKGRFTISRDNAKYTVYLQINSLKPEDTAVYYCARVSKRTWSGYYFLGQGTQVTVSS | high polyreactivity |
| QDHLVESGGGLVQAGGSLRLSCAASRRTLLRYAMGWYRQAPGKERELVAAISSSGGRTYYADSVKGRFTISRDNAKNTVYLQMNSLKPEDTAVYYCAAKSSYVGHDYWGQGTQVTVSS | high polyreactivity |
| QVQLVESGGGLVQAGGSLRLSCAASGFIFRYYAMGWYRQEPGKERELVAAITSRGSSTYYADSVKGRFTISRDNAKNTVYLQMNSLKPEDTAVYYCAARLRGDYVRYDYWGQGTQVTVSS | high polyreactivity |
| QVQLVESGGGLVQAGGRLRISCAASGSTFLDNAMGWYRQAPGKERELVASITSSGGNTYYADSVKGRFTISRDNAKNTVYLQMNRLKPEDTAVYYCAADAASYWGSNSANYDYDYWGQGTQVTVSS | low polyreactivity |
| QVQLVESGGGLVQAGGSLRISCAASGITFYANVMGWYRQAPGKARELVAAISARRGSTYYADSVKGRFTISRDNAKNTVYLQMNSLKPEDTAVYYCATREAYRQQGGYGYWGQGTQVTVSS | high polyreactivity |

Param item = QVQLVESGGGLVQAGGSLRLSCAASGSIFTDNAMGRYRQAPGKERELVAAITSNGGSTYYADSVKGRFTISRDNAKNTVYLQMNSLKPEDTAVYYCAADSLYREDDYWGQGTQVTVSS ; retrieve measured polyreactivity (PSR sort gate).
low polyreactivity

What value of polyreactivity (PSR sort gate) has been recorded for this entry: QVQLEESGGGLVQEGGSLRLSCAASGRIFKWNAMGLYRQAPGKERELVAAISLSGGSTYYADSVKGRFTISRDNAKNTVYLQMNSLKPEDTAVYYCNAYAYHRYGYWGQGTQVTVSS
high polyreactivity

So what's the measured polyreactivity (PSR sort gate) for this one? QVQLVESGGGLVQAGGSLRLSCAASGRTLFYYTMGWYRQAPGKVRELVAAITTGGRTYYADSVKGRFTISRDNAKNTVYLQMNSLNPEDTAVYYCAAHTYYYPVGFNYWGPGTQVTVSS
low polyreactivity
